# protocol_description: Tmax in non-fasted Beagle dog at 30 mg/kg, po by LC-MS/MS analysis
# Assay type: ADME, organism-based, Canis lupus familiaris
# condition_description: in vivo

# smiles, Tmax (h)
measured = [
    ("CC(C)c1cccc(C(C)C)c1NC(=O)CCCCCCCCSc1nc2ccccc2o1", 3),
]

====

# experimental_system: UniProtKB Q61263
# Sequence (Q61263 whole entry): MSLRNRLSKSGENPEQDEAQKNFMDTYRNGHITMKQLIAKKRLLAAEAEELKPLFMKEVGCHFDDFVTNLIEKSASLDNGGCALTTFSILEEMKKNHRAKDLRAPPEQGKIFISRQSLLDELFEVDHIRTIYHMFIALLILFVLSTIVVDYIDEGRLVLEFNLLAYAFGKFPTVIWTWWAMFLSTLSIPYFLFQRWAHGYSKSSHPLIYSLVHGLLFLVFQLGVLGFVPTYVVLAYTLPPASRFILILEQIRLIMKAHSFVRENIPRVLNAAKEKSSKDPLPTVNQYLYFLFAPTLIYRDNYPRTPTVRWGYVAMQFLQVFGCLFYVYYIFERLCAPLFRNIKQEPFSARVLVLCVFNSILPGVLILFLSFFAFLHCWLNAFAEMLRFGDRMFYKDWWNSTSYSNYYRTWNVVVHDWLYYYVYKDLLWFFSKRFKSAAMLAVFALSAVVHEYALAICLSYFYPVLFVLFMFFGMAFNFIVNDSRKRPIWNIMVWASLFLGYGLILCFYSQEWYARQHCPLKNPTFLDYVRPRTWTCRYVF
# protocol_description: Inhibition of ACAT1 in mouse J774 cells assessed as reduction in esterified cholesterol accumulation after 18 hrs in presence of 25-hydroxycholesterol
# Type: cell-based
pIC50: −log10 of the molar value.

# compound, pIC50
data = [
    ("CC(C)c1cccc(C(C)C)c1NC(=O)CCCSc1nc2ccccc2o1", 5.55),
    ("CC(C)c1cccc(C(C)C)c1NC(=O)CCCCCCCCCSc1nc2ccccc2o1", 7.00),
    ("CC(C)c1cccc(C(C)C)c1NC(=O)CSc1nc2ccccc2[nH]1", 6.74),
    ("CC(C)c1cccc(C(C)C)c1NC(=O)CCCCCSc1nc2ccccc2s1", 5.28),
    ("CC(C)c1cccc(C(C)C)c1NC(=O)CCCCCSc1nc2cccc(CN(C)C)c2o1", 5.25),
    ("CC(C)c1cccc(C(C)C)c1NC(=O)CCCCCSc1nc2cc(N(C)C)ccc2o1", 6.30),
    ("CC(C)c1cccc(C(C)C)c1NC(=O)CCCCCSc1nc2ccc(C(=O)O)cc2o1", 5.36),
    ("CC(C)c1cccc(C(C)C)c1NC(=O)CCCCCSc1nc2cc(CO)ccc2o1", 5.96),
    ("CC(C)c1cc(C(C)C)c(CC(=O)NS(=O)(=O)Oc2c(C(C)C)cccc2C(C)C)c(C(C)C)c1 [AVASIMIBE]", 6.23),
    ("COC(=O)c1ccc2nc(SCCCCCC(=O)Nc3c(C(C)C)cccc3C(C)C)oc2c1", 6.30),
]
